# Tested on: ENR+CD organoids
# experiment_notes: Primary screen: ATP (CellTiter-Glo 3D, CTG) cell number/viability, 2.5-D 384-well ENR+CD organoids;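 further: compounds given at plating and again on day 3 over a 6-day differentiation from ENR+CV stem-cell-enriched precursors, ATP measured on day 6, plate median as control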
# measurement_parameters: primary screen, standard z score, dose 2.00 uM
Z.CTG for assorted compounds
# print the numeric value only

Worked examples, 2 compounds total:
compound | Z.CTG
CC1(COc2ccc3c(c2)ncn3-c2ccc3cccc(N4CCC(N)CC4)c3n2)COC1 [Crenolanib (CP-868596)] | 0.127
COc1cc(Nc2ncc(F)c(Nc3ccc4c(n3)N(COP(=O)(O)O)C(=O)C(C)(C)O4)n2)cc(OC)c1OC [Fostamatinib (R788)] | −0.552

# evaluate next
The compound CN[C@@H](C)C(=O)N[C@H](C(=O)N1CCC[C@H]1C(=O)Nc1snnc1-c1ccccc1)C1CCCCC1 [GDC-0152] showed Z.CTG equal to 0.008
